protocol description: Inhibition of rat intestinal alpha-glucosidase
Collected IC50 values appear next to each entry.
Report the figure in µM without appending any unit label.

{"compound": "C[C@H]1O[C@H](O[C@H]2[C@H](O)[C@@H](O)[C@@H](O[C@H]3[C@H](O)[C@@H](O)C(O)O[C@@H]3CO)O[C@@H]2CO)[C@H](O)[C@@H](O)[C@@H]1N[C@H]1C=C(CO)[C@@H](O)[C@H](O)[C@H]1O (stereo partly drawn)", "measured quantity": "IC50", "result": 6.38}
{"compound": "COc1c(O)c(CN2CCN(C(=O)OC(C)(C)C)CC2)c2oc(-c3ccccc3)cc(=O)c2c1O", "measured quantity": "IC50", "result": 75}

Data request: Return IC50 (reported value) for this compound: COc1c(O)c(CN2CCOCC2)c2oc(-c3ccccc3)cc(=O)c2c1O
Data returned: 76

Data request: Return IC50 (reported value) for this compound: COc1c(O)cc2oc(-c3ccccc3)cc(=O)c2c1O
Data returned: 135

Data request: Return IC50 (reported value) for this compound: COc1c(O)c(CN2CCN(C)CC2)c2oc(-c3ccccc3)cc(=O)c2c1O
Data returned: 35.4

Data request: Return IC50 (reported value) for this compound: COc1c(O)c(CN2CCCCC2)c2oc(-c3ccccc3)cc(=O)c2c1O
Data returned: 50.7

Data request: Return IC50 (reported value) for this compound: O=c1cc(-c2ccccc2)oc2cc(O)cc(O)c12
Data returned: 376

Data request: Return IC50 (reported value) for this compound: O=c1cc(-c2ccccc2)oc2cc(O)c(O)c(O)c12
Data returned: 215

* * *

protocol description: Inhibition of yeast alpha-glucosidase
Set-up: species or system Saccharomyces cerevisiae
Collected pIC50 values appear next to each entry.
Entry type: numeric. Quantity: pIC50, the -log10 of concentration in molar units.

{"compound": "COc1c(O)c(CN2CCN(C(=O)OC(C)(C)C)CC2)c2oc(-c3ccccc3)cc(=O)c2c1O", "pIC50": 4.07}
{"compound": "OC[C@H]1NC[C@H](O)[C@@H](O)[C@@H]1O", "pIC50": 4.31}

Next up:
Data request: Return pIC50 (reported value) for this compound: COc1c(O)c(CN2CCCCC2)c2oc(-c3ccccc3)cc(=O)c2c1O
Data returned: 3.78

* * *

Collected pIC50 values appear next to each entry.
protocol description: Inhibition of yeast alpha-glucosidase
Design: species or system Saccharomyces cerevisiae
Entry type: numeric. Quantity: pIC50, the -log10 of concentration in molar units.

{"compound": "COc1c(O)cc2oc(-c3ccccc3)cc(=O)c2c1O", "pIC50": 3.91}
{"compound": "O=c1cc(-c2ccccc2)oc2cc(O)cc(O)c12", "pIC50": 3.43}
{"compound": "COc1c(O)c(CN2CCOCC2)c2oc(-c3ccccc3)cc(=O)c2c1O", "pIC50": 3.82}
{"compound": "COc1c(O)c(CN2CCN(C)CC2)c2oc(-c3ccccc3)cc(=O)c2c1O", "pIC50": 4.01}

Next up:
Data request: Return pIC50 (reported value) for this molecule: O=c1cc(-c2ccccc2)oc2cc(O)c(O)c(O)c12
Data returned: 3.69
